Tested on: Bacteroides fragilis
experiment-summary: Expected efficacy of antibiotic agents
conditions: expected efficacy against Bacteroides fragilis; Gram: anaer
quantity: Efficacy

CN[C@H](CC(C)C)C(=O)N[C@H]1C(=O)N[C@@H](CC(N)=O)C(=O)N[C@H]2C(=O)N[C@H]3C(=O)N[C@H](C(=O)N[C@H](C(=O)O)c4cc(O)cc(O)c4-c4cc3ccc4O)[C@H](O)c3ccc(c(Cl)c3)Oc3cc2cc(c3O[C@@H]2O[C@H](CO)[C@@H](O)[C@H](O)[C@H]2O[C@H]2C[C@](C)(N)[C@H](O)[C@H](C)O2)Oc2ccc(cc2Cl)[C@H]1O | no
CC[C@H]1OC(=O)[C@H](C)[C@@H](O[C@H]2C[C@@](C)(OC)[C@@H](O)[C@H](C)O2)[C@H](C)[C@@H](O[C@@H]2O[C@H](C)C[C@H](N(C)C)[C@H]2O)[C@](C)(O)C[C@@H](C)CN(C)[C@H](C)[C@@H](O)[C@]1(C)O | no
